meta.source: the domain aggregation screens of Martell et al. (2025)

METHOD: soluble fraction after stress (log2 fold change); higher = more stays soluble; pooled small domains, quantitative proteomics
EXPERIMENTAL SETUP: stress: pH 4
soluble fraction (log2) overview
PROPERTY: soluble fraction (log2)

• HMTKNEFLQGLKEELEGRVTHSAIQENIRYYDDYISQEVLKGSTEEEVTESLGGPRIIARTIVDAAYD = -2.29
• HMAQASEPMLALIRLKWWEEQINSPVKGDSLPLLSQLNSHISAGYLSRSQVTSLIQRWQDYA = -1.18
• HMKSIFIRADELAAELDVSKALAYKMINQWNEELKAKGYTTVGGRVSRQYYYEKIYGAENVFDF = -1.78
• HMIKSIRELAEVITLWKNQGKTILIAEHRLSYLMDLADRVLYMKDGQIENDFSMADFRKIPPDEISRMGLR = -0.532

###

METHOD: soluble fraction after stress (log2 fold change); higher = more stays soluble; pooled small domains, quantitative proteomics
EXPERIMENTAL SETUP: stress: pH 4
Threshold check on soluble fraction (log2): at or above -0.6 gives Condition met, strictly below gives Condition not met.

• HMSVDDEQLLKIIDDIFQQNPQAVTDAKTDSNAIHFLIGQVMKETKGHADHAISKEIIEKKLS = Condition not met
• HMILESREKYLGEVLEVLVEEEKEGEYFGYSQNYLRVKFKLEEKNLINQLINIKIKSIEDDILIGEKEN = Condition not met
• HMVPHTTSMVAEVQERLFNLNYDPGPINGRMDQATITAITRFQRNFSLPQTGQIDEGFLNTLRDARL = Condition met
• HMKVVEKHIVPQIQNPIRLQEYASSIFKTITTRSGIKKAIKKQLILLNRKPANTGDWIKEGQLLELLAEE = Condition met
• HMKTMAVYPVGTRVLTSDGEIGVVEKQNSEAPERPVIKILKGADGHDYEKPDFKDLMKILTLFIVDTI = Condition met
• HMFSIDRNIRRLRKEAGLTQEELAQKLFVTRQTISLWELGKVHPDLETLQKLAEQFQVDLLQVLYGPE = Condition not met
• HMDVNAQAGYDKLQSNQLDGARHDYEQALKTDPNNVDTLLALAAIAQRQGRSADADGYRQRAIDAD = Condition met

###

METHOD: soluble fraction after stress (log2 fold change); higher = more stays soluble; pooled small domains, quantitative proteomics
EXPERIMENTAL SETUP: stress: pH 4
PROPERTY: soluble fraction (log2)

* HMNLDPIKRKSEILSLFESHKNVKFNEIFFEKVNKEFTVLTFLIILELVKDNIIDFSQTQEGLIEFFTR | 0.204
* HMDPSHGESRENLDIMRIIDETHLEYPSWGYRKMTDHLRANHGYTINRKRVRRLMRLMDIIALFPG | -0.908
* HMLNKRQAEILAEVSRLKEITPSELYKLQPNVSSRTLRRDMDVLVNKGLVSQDGSTKSTKYTYL | 0.102
* HMKYNGDRPVFNDDVAWAKWMLENPAKITSHDKENLSSMLKKPEVVMLFEAEDLSVPDLRTLAKE | -0.349
* HMLPGVPVVAGKTQSAATRILKAAGYAVSVVREEAFDGVTGTVLRTSPEAGSPLAPGSRVTLVVLQVV | -0.114
* HMSDFSSNLRRLRKRAGLSQDALAEKLSVARQTVSSWERGNSYPDLDMLVRISDALATDPNELLYPN | 0.0655
* HMVYFAKNIRHLRRLRGMSQELLAAELDITRARLGAYEESRSEPPLHLLIKISEFFKLPVDIIVKNDLTKS | -0.961
* HMKSAIGEEKAENFAFADLGMDPLSAEGVRTEFGFEQGQFVYKVYFTADGTEYEYWIKASDGSVVKKGMDL | -1.33
